I'd be grateful if you could share measured AUClast for these entries.
details: i.v., mice
Response body: numeric value in ng·h/mL, unit text excluded.

Quick one: give measured AUClast for CN1CCCC[C@H]1Cn1cc(C(=O)c2cc([N+](=O)[O-])ccc2I)c2ccccc21 [(S)-AM1241]
269

Quick one: give measured AUClast for COc1ccc(C(=O)c2c(C)n(CCN3CCOCC3)c3cc(I)ccc23)cc1
177

Quick one: give measured AUClast for Cc1ccc2c(c1)Cc1c(C(=O)NN3CCCCC3)nn(-c3ccc(Cl)cc3Cl)c1-2
658

Quick one: give measured AUClast for CCCn1c(C)c(C(=O)c2cccc3ccccc23)c2ccccc21
163

Quick one: give measured AUClast for CCCC(C)(C)c1ccc2c(c1)OC(C)(C)[C@@H]1CC=C(C)C[C@@H]21
1650

Quick one: give measured AUClast for CCCCCCC(C)(C)c1cc(OC)c(C2=C[C@H]3CC[C@]2(CO)C3(C)C)c(OC)c1
5960

* * *

molecular target: hCB2R (Homo sapiens); parameters: expressed in transfected cells; host or cells: Flp-In-293 (Invitrogen #R750-07), pcDNA5/FRT; conditions: hCB2R, reference CP55940
Sequence (P34972 whole entry): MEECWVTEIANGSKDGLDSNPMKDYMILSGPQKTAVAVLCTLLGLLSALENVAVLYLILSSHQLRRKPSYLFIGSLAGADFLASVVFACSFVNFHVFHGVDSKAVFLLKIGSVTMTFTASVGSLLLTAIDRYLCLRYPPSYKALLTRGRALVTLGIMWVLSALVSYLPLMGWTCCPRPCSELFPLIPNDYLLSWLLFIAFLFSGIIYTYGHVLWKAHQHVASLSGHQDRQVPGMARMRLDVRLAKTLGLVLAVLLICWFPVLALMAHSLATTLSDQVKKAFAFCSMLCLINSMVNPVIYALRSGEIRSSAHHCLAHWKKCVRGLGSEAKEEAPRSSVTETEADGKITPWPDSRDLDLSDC
I'd be grateful if you could share measured ΔLogR cAMP for these entries.
// print number alone

Quick one: give measured ΔLogR cAMP for CCCCC/C=C\C/C=C\C/C=C\C/C=C\CCCC(=O)OC(CO)CO [2-AG, 2-arachidonoyl glycerol]
-3.72

Quick one: give measured ΔLogR cAMP for CCCCCCC(C)(C)c1cc(OC)c(C2=C[C@H]3CC[C@]2(CO)C3(C)C)c(OC)c1 [HU910]
-2.35

Quick one: give measured ΔLogR cAMP for CCCCCCC(C)(C)c1cc(OC)c([C@@H]2C=C(CO)[C@@H]3C[C@H]2C3(C)C)c(OC)c1 [HU308]
-2.22

Quick one: give measured ΔLogR cAMP for CCCCC/C=C\C/C=C\C/C=C\C/C=C\CCCC(=O)NCCO [Anandamide, N-arachidonoylethanolamine]
-4.76

* * *

I'd be grateful if you could share measured Plasma protein binding mouse for these entries.
Response body: numeric value in %free, unit text excluded.

Quick one: give measured Plasma protein binding mouse for CN1CCCC[C@H]1Cn1cc(C(=O)c2cc([N+](=O)[O-])ccc2I)c2ccccc21 [(S)-AM1241]
1.2

Quick one: give measured Plasma protein binding mouse for CCCCCCC(C)(C)c1cc(OC)c(C2=C[C@H]3CC[C@]2(CO)C3(C)C)c(OC)c1
4.1

Quick one: give measured Plasma protein binding mouse for Cc1c(C(=O)c2cccc3ccccc23)c2cccc3c2n1[C@H](CN1CCOCC1)CO3
1.0

Quick one: give measured Plasma protein binding mouse for COc1ccc(C(=O)c2c(C)n(CCN3CCOCC3)c3cc(I)ccc23)cc1
0.4

* * *

I'd be grateful if you could share measured LogR β-AR for these entries.
molecular target: hCB2R (Homo sapiens); set-up: expressed in transfected cells; host or cells: Flp-In-293 (Invitrogen #R750-07), pcDNA5/FRT; conditions: hCB2R
// print number alone

Quick one: give measured LogR β-AR for CCCCC/C=C\C/C=C\C/C=C\C/C=C\CCCC(=O)OC(CO)CO [2-AG, 2-arachidonoyl glycerol]
5.9

Quick one: give measured LogR β-AR for CN1CCCC[C@@H]1Cn1cc(C(=O)c2cc([N+](=O)[O-])ccc2I)c2ccccc21 [(R)-AM1241]
7.21

Quick one: give measured LogR β-AR for CCCCCCC(C)(C)c1cc(OC)c([C@@H]2C=C(CO)[C@@H]3C[C@H]2C3(C)C)c(OC)c1 [HU308]
7.72

* * *

target: Rat recombinant TRPM8 (Rattus norvegicus); assay: TRP channel [Ca2+]i assay; settings: agonist; read-out: TRPM8 potency EC50
Sequence (Q8R455 whole entry): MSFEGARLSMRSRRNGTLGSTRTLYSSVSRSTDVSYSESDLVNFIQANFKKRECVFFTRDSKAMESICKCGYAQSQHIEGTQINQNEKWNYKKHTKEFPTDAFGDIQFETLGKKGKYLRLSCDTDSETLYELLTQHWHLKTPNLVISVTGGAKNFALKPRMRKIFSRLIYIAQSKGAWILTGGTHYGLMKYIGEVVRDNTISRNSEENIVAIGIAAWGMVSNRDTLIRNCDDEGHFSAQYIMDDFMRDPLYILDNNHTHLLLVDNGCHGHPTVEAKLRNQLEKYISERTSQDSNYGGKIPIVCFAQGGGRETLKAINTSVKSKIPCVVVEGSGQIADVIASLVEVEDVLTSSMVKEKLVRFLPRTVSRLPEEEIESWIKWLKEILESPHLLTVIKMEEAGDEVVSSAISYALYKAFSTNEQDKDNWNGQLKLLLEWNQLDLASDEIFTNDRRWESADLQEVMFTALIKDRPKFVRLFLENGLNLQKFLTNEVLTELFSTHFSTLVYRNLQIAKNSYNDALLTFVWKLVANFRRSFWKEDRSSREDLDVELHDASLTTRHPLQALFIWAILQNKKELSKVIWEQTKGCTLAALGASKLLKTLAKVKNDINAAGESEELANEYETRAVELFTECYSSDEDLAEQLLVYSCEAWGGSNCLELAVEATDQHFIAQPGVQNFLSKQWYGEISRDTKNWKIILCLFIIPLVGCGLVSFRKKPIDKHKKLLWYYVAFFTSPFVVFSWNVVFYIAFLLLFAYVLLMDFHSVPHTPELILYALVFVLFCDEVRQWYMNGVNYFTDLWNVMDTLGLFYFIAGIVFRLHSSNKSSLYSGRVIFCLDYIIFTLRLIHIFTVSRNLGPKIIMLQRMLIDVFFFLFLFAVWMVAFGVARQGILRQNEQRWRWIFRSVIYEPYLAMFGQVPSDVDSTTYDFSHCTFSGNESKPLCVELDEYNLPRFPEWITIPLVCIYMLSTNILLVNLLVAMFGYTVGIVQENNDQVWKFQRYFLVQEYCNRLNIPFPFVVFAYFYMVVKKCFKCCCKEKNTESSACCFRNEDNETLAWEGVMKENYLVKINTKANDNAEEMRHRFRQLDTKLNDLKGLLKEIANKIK
metricName: EC50 (nM)
Response body: numeric value in nM, unit text excluded.

Quick one: give measured EC50 for O=C1NC(c2cccc([N+](=O)[O-])c2)=CCN1c1ccccc1O [icilin]
110

* * *

target: mCB1R (Mus musculus, UniProt P47746); construct: from tissue; host or cells: brain of male C57BL/6J mice; assay: biochemical; conditions: mouse brain
Sequence (P47746 whole entry): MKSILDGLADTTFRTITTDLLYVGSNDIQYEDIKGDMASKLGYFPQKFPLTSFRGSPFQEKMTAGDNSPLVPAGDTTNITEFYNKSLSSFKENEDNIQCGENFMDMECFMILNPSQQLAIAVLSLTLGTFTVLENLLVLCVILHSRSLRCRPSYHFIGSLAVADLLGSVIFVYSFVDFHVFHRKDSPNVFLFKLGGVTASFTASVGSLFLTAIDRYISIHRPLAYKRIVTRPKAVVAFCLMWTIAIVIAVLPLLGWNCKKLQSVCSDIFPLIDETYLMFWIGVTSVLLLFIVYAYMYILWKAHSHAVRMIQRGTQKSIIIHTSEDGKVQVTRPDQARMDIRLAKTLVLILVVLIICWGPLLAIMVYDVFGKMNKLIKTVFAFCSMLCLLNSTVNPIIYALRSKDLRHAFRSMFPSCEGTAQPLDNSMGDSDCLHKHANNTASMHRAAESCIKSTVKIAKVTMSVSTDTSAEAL
I'd be grateful if you could share measured pEC50 ± SEM cAMP mCB1R for these entries.

Quick one: give measured pEC50 ± SEM cAMP mCB1R for COc1ccc(C(=O)c2c(C)n(CCN3CCOCC3)c3cc(I)ccc23)cc1
< 5

Quick one: give measured pEC50 ± SEM cAMP mCB1R for CN1CCCC[C@H]1Cn1cc(C(=O)c2cc([N+](=O)[O-])ccc2I)c2ccccc21 [(S)-AM1241]
5.43 ± 0.42

Quick one: give measured pEC50 ± SEM cAMP mCB1R for Cc1ccc2c(c1)Cc1c(C(=O)NN3CCCCC3)nn(-c3ccc(Cl)cc3Cl)c1-2
5.86 ± 0.42

Quick one: give measured pEC50 ± SEM cAMP mCB1R for CCCn1c(C)c(C(=O)c2cccc3ccccc23)c2ccccc21
< 5

Quick one: give measured pEC50 ± SEM cAMP mCB1R for CCCCCCC(C)(C)c1cc(OC)c(C2=C[C@H]3CC[C@]2(CO)C3(C)C)c(OC)c1
< 5

Quick one: give measured pEC50 ± SEM cAMP mCB1R for CN1CCCC[C@@H]1Cn1cc(C(=O)c2cc([N+](=O)[O-])ccc2I)c2ccccc21 [(R)-AM1241]
5.08 ± 0.16

* * *

target: mCB2R (Mus musculus); assay: Operational analysis of biased signalling; conditions: relative effectiveness
Sequence (P47936 whole entry): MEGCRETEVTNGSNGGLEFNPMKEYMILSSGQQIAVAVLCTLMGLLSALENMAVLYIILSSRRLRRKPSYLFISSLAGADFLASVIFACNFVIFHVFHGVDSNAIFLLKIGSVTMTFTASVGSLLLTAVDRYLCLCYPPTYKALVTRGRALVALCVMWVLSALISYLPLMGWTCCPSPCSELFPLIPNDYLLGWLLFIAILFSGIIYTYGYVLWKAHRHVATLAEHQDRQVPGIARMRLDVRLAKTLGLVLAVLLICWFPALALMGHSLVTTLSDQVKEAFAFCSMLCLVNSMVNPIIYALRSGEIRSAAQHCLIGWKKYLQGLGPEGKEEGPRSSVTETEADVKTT
I'd be grateful if you could share measured RE GTPγS for these entries.
// print number alone

Quick one: give measured RE GTPγS for CCCC(C)(C)c1ccc2c(c1)OC(C)(C)[C@@H]1CC=C(C)C[C@@H]21 [JWH133]
0.18

Quick one: give measured RE GTPγS for CCCCCCC(C)(C)c1cc(OC)c(C2=C[C@H]3CC[C@]2(CO)C3(C)C)c(OC)c1 [HU910]
0.22

Quick one: give measured RE GTPγS for CCCCCCC(C)(C)c1ccc([C@@H]2C[C@H](O)CC[C@H]2CCCO)c(O)c1 [CP55940]
1.00

Quick one: give measured RE GTPγS for CCCCCCC(C)(C)c1cc(OC)c([C@@H]2C=C(CO)[C@@H]3C[C@H]2C3(C)C)c(OC)c1 [HU308]
0.09

* * *

target: mouse P-gp (Mus musculus); conditions: efflux ratio
Sequence (P21447 whole entry): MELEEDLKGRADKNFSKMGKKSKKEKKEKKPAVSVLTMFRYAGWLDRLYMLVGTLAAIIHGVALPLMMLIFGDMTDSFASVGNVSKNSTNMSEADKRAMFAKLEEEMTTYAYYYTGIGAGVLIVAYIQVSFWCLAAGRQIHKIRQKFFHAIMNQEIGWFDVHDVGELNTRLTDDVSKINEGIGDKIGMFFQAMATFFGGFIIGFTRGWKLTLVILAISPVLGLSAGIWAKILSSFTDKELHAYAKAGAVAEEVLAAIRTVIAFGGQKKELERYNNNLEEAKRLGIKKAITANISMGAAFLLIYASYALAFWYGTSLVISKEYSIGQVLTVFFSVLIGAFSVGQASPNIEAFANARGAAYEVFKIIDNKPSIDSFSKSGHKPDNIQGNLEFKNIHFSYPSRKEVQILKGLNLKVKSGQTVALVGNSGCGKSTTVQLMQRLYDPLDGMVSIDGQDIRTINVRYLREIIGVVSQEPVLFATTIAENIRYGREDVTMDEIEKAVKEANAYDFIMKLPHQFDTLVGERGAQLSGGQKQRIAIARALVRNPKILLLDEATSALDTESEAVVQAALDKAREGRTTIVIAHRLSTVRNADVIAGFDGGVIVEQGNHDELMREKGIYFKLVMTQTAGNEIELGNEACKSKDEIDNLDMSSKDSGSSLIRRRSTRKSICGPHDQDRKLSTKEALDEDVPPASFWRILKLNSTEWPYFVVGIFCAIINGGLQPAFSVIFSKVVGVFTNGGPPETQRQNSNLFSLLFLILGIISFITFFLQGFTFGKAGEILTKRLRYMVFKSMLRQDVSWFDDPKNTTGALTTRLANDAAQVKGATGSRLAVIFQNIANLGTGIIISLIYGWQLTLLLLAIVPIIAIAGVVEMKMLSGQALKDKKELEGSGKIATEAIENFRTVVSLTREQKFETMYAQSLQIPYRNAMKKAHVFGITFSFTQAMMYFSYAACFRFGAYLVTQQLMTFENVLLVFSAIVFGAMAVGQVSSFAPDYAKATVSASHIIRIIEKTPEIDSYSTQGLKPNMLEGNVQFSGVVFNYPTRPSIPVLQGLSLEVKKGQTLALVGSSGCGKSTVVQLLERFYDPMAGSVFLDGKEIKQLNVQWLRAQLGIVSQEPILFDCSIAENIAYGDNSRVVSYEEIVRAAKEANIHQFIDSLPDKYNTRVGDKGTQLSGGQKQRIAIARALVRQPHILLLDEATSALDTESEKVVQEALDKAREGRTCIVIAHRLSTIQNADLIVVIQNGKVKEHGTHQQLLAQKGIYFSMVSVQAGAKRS
Labelling field: enter true (1) if recorded P-gp (ER) mouse is less than 2. Enter false (0) if it equals or exceeds that cut-off.

Please determine if CCCC(C)(C)c1ccc2c(c1)OC(C)(C)[C@@H]1CC=C(C)C[C@@H]21 [JWH133] is below 2 in terms of P-gp (ER) mouse.
true (1)

Please determine if CCCCCCC(C)(C)c1cc(OC)c(C2=C[C@H]3CC[C@]2(CO)C3(C)C)c(OC)c1 [HU910] is below 2 in terms of P-gp (ER) mouse.
false (0)

Please determine if Cc1ccc2c(c1)Cc1c(C(=O)NN3CCCCC3)nn(-c3ccc(Cl)cc3Cl)c1-2 [Gp-1a] is below 2 in terms of P-gp (ER) mouse.
true (1)

Please determine if CN1CCCC[C@H]1Cn1cc(C(=O)c2cc([N+](=O)[O-])ccc2I)c2ccccc21 [(S)-AM1241] is below 2 in terms of P-gp (ER) mouse.
true (1)

Please determine if COc1ccc(C(=O)c2c(C)n(CCN3CCOCC3)c3cc(I)ccc23)cc1 [AM630] is below 2 in terms of P-gp (ER) mouse.
true (1)

Please determine if CCCn1c(C)c(C(=O)c2cccc3ccccc23)c2ccccc21 [JWH015] is below 2 in terms of P-gp (ER) mouse.
true (1)

* * *

target: UniProt P34972; design: expressed in transfected cells; host or cells: Flp-In-293 (Invitrogen #R750-07), pcDNA5/FRT; settings: hCB2R
I'd be grateful if you could share measured β-AR-cAMP ΔΔlogR for these entries.
// print number alone

GET β-AR-cAMP ΔΔlogR | system: UniProt P34972 | item: CCCCCCC(C)(C)c1cc(OC)c(C2=C[C@H]3CC[C@]2(CO)C3(C)C)c(OC)c1 [HU910]
1.57

GET β-AR-cAMP ΔΔlogR | system: UniProt P34972 | item: CCCCC/C=C\C/C=C\C/C=C\C/C=C\CCCC(=O)NCCO [Anandamide, N-arachidonoylethanolamine]
1.80

GET β-AR-cAMP ΔΔlogR | system: UniProt P34972 | item: CCCCC/C=C\C/C=C\C/C=C\C/C=C\CCCC(=O)OC(CO)CO [2-AG, 2-arachidonoyl glycerol]
1.12

GET β-AR-cAMP ΔΔlogR | system: UniProt P34972 | item: CCCCCCC(C)(C)c1cc(OC)c([C@@H]2C=C(CO)[C@@H]3C[C@H]2C3(C)C)c(OC)c1 [HU308]
1.43

This collection of values is drawn from paper PMC5216056.
